- ASSAYED_SYSTEM: NEK7 (Homo sapiens (Human), UniProt Q8TDX7+Q96SW2)
- Sequence (Q8TDX7 whole entry): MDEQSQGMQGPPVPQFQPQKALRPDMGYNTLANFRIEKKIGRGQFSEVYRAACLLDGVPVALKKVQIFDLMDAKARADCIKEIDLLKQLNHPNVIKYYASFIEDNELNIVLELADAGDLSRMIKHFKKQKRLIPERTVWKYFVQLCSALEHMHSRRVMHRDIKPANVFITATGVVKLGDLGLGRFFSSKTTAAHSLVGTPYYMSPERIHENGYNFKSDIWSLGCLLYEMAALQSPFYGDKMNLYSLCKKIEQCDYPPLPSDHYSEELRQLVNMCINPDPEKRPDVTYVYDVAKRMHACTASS
- Sequence (Q96SW2 whole entry): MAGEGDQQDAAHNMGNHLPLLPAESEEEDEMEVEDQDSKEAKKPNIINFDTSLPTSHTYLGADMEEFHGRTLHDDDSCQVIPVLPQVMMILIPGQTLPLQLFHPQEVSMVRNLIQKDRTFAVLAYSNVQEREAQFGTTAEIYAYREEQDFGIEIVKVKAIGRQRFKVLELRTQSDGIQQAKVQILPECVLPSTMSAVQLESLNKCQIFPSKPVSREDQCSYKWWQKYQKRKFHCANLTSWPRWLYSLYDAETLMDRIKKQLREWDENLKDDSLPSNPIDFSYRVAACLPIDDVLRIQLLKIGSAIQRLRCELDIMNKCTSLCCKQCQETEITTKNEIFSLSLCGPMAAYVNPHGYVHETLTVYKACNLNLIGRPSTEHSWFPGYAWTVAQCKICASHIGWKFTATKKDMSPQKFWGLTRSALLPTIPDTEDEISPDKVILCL
- Sequence (Q16531 2-1140 partner): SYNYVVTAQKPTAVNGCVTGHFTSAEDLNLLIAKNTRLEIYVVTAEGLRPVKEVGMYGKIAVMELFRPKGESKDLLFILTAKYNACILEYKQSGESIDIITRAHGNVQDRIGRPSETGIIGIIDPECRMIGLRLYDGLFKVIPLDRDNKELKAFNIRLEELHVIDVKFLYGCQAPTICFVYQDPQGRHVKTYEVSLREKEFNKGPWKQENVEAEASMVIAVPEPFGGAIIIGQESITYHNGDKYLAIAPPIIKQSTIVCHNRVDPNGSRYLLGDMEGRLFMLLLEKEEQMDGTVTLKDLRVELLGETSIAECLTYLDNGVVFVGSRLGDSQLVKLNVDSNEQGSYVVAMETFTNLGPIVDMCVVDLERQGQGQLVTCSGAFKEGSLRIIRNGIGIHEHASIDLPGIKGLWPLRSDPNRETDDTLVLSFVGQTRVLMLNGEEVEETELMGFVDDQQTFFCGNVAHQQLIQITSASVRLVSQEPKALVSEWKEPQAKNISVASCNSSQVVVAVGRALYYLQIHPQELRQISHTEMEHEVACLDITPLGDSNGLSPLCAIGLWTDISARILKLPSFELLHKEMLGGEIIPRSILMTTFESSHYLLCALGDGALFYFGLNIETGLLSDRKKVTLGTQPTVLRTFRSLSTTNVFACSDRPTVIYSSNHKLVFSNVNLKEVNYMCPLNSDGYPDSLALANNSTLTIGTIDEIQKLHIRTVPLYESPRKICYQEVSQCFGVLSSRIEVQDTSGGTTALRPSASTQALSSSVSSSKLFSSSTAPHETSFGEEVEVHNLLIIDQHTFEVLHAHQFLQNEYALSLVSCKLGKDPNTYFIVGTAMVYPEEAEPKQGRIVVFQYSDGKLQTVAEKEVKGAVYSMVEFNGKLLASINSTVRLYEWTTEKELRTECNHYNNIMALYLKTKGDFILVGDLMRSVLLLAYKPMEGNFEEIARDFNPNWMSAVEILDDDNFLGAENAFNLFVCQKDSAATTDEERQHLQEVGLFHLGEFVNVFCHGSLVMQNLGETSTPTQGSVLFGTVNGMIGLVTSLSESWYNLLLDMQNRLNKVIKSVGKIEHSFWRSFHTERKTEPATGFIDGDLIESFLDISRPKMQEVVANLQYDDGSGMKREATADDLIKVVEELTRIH
- ASSAY_SUMMARY: NEK7 NanoBiT degradation assay in Cal51 NEK7 NanoBiT cell line
- Assay type: cell-based
- ASSAY_CONDITIONS: NEK7 degradation, Cal51 NEK7 NanoBiT cells, 24 hours; read-out: NanoBiT DC50
- Protocol: Cal51 NEK7 NanoBiT cell line was generated via CRISPR Knock-In of the HiBiT tag in NEK7 gene and stable infection with a lentivirus carrying LgBiT protein. The cell line was generated in house. […] Cells were incubated at 37° C., 5% CO2 for 24 hours and then signal was read on a Pherastar FSX using “LUM plus” optic module with 4095 gain and measurement interval time 0.2 seconds. […]
compounds and their reported DC50

COMPOUND: Cc1ccc(C(C)(C)C(=O)NCc2cc(Cl)c(C3CCC(=O)NC3=O)c(Cl)c2)nc1 (stereo not shown) [Compound 89]
ASSAYED_SYSTEM: NEK7 (Homo sapiens (Human), UniProt Q8TDX7+Q96SW2)
DC50: ≤ 0.1 µM
//
COMPOUND: CC(C)(C(=O)NCc1cc(Cl)c(C2CCC(=O)NC2=O)c(Cl)c1)c1cccnc1 (stereo not shown) [Compound 99]
ASSAYED_SYSTEM: NEK7 (Homo sapiens (Human), UniProt Q8TDX7+Q96SW2)
DC50: ≤ 0.1 µM
//
COMPOUND: COc1conc1C(C)(C)C(=O)NCc1cc(F)c(C2CCC(=O)NC2=O)c(Cl)c1 (stereo not shown) [Compound 268]
ASSAYED_SYSTEM: NEK7 (Homo sapiens (Human), UniProt Q8TDX7+Q96SW2)
DC50: ≤ 0.1 µM
//
COMPOUND: CC(C)(C(=O)NCc1cc(Cl)c(C2CCC(=O)NC2=O)c(Cl)c1)c1ccnc(C(F)(F)F)c1 (stereo not shown) [Compound 97]
ASSAYED_SYSTEM: NEK7 (Homo sapiens (Human), UniProt Q8TDX7+Q96SW2)
DC50: ≤ 0.1 µM
//
COMPOUND: CC(C)(C(=O)NCc1cc(Cl)c(C2CCC(=O)NC2=O)c(Cl)c1)c1cc(F)nc(F)c1 (stereo not shown) [Compound 73]
ASSAYED_SYSTEM: NEK7 (Homo sapiens (Human), UniProt Q8TDX7+Q96SW2)
DC50: ≤ 0.1 µM
//
COMPOUND: CCOc1ccc(C(C)(C)C(=O)NCc2cc(F)c(C3CCC(=O)NC3=O)c(Cl)c2)nn1 (stereo not shown) [Compound 258]
ASSAYED_SYSTEM: NEK7 (Homo sapiens (Human), UniProt Q8TDX7+Q96SW2)
DC50: ≤ 0.1 µM
//
COMPOUND: Cc1cncc(C(C)(C)C(=O)NCc2cc(Cl)c(C3CCC(=O)NC3=O)c(Cl)c2)n1 (stereo not shown) [Compound 176]
ASSAYED_SYSTEM: NEK7 (Homo sapiens (Human), UniProt Q8TDX7+Q96SW2)
DC50: 0.1 to 1 µM
//
COMPOUND: CC(C)(C(=O)NCc1cc(Cl)c(C2CCC(=O)NC2=O)c(Cl)c1)c1ccc(C(F)F)cn1 (stereo not shown) [Compound 4]
ASSAYED_SYSTEM: NEK7 (Homo sapiens (Human), UniProt Q8TDX7+Q96SW2)
DC50: ≤ 0.1 µM
//
COMPOUND: CC(C)(O)c1cnc(C(C)(C)C(=O)NCc2cc(Cl)c(C3CCC(=O)NC3=O)c(Cl)c2)cn1 (stereo not shown) [Compound 238]
ASSAYED_SYSTEM: NEK7 (Homo sapiens (Human), UniProt Q8TDX7+Q96SW2)
DC50: 0.1 to 1 µM
//
COMPOUND: CC(C)(C(=O)NCc1cc(Cl)c(C2CCC(=O)NC2=O)c(Cl)c1)c1cnc(F)nc1 (stereo not shown) [Compound 5]
ASSAYED_SYSTEM: NEK7 (Homo sapiens (Human), UniProt Q8TDX7+Q96SW2)
DC50: 0.1 to 1 µM

----------
molecules and their reported Dmax
- ASSAYED_SYSTEM: NEK7 (Homo sapiens (Human), UniProt Q8TDX7+Q96SW2)
- ASSAY_SUMMARY: NEK7 NanoBiT degradation assay in Cal51 NEK7 NanoBiT cell line
- Format: cell-based
- ASSAY_CONDITIONS: CAL-51; NEK7 degradation, Cal51 NEK7 NanoBiT cells, 24 hours; read-out: NanoBiT Dmax

MOLECULE: CC(C)(C(=O)NCc1cc(Cl)c(C2CCC(=O)NC2=O)c(Cl)c1)c1nocc1C1CC1 (stereo not drawn)
ASSAYED_SYSTEM: NEK7 (Homo sapiens (Human), UniProt Q8TDX7+Q96SW2)
Dmax: > 75%
--
MOLECULE: CC(C)(C(=O)NCc1cc(Cl)c(C2CCC(=O)NC2=O)c(Cl)c1)c1ncc(C2CC2)cn1 (stereo not drawn)
ASSAYED_SYSTEM: NEK7 (Homo sapiens (Human), UniProt Q8TDX7+Q96SW2)
Dmax: > 75%
--
MOLECULE: Cn1cc(C(C)(C)C(=O)NCc2cc(Cl)c(C3CCC(=O)NC3=O)c(Cl)c2)ccc1=O (stereo not drawn)
ASSAYED_SYSTEM: NEK7 (Homo sapiens (Human), UniProt Q8TDX7+Q96SW2)
Dmax: 50 to 75%
--
MOLECULE: CC(C)(C(=O)NCc1cc(Cl)c(C2CCC(=O)NC2=O)c(Cl)c1)c1cc2ncccc2cn1 (stereo not drawn)
ASSAYED_SYSTEM: NEK7 (Homo sapiens (Human), UniProt Q8TDX7+Q96SW2)
Dmax: > 75%
--
MOLECULE: CC(C)(C(=O)NCc1cc(Cl)c(C2CCC(=O)NC2=O)c(Cl)c1)c1ccc(C2CC2)nn1 (stereo not drawn)
ASSAYED_SYSTEM: NEK7 (Homo sapiens (Human), UniProt Q8TDX7+Q96SW2)
Dmax: > 75%
--
MOLECULE: CC(C)(C(=O)NCc1cc(Cl)c(C2CCC(=O)NC2=O)c(Cl)c1)c1ncc(OC(F)F)cn1 (stereo not drawn)
ASSAYED_SYSTEM: NEK7 (Homo sapiens (Human), UniProt Q8TDX7+Q96SW2)
Dmax: > 75%
--
MOLECULE: CC(C)(C(=O)NCc1cc(Cl)c(C2CCC(=O)NC2=O)c(Cl)c1)c1cnc(CO)cn1 (stereo not drawn)
ASSAYED_SYSTEM: NEK7 (Homo sapiens (Human), UniProt Q8TDX7+Q96SW2)
Dmax: > 75%
--
MOLECULE: CNS(=O)(=O)c1ccc(C(C)(C)C(=O)NCc2cc(Cl)c(C3CCC(=O)NC3=O)c(Cl)c2)cc1 (stereo not drawn)
ASSAYED_SYSTEM: NEK7 (Homo sapiens (Human), UniProt Q8TDX7+Q96SW2)
Dmax: > 75%
--
MOLECULE: CC(C)(C(=O)NCc1cc(Cl)c(C2CCC(=O)NC2=O)c(Cl)c1)c1ncccn1 (stereo not drawn)
ASSAYED_SYSTEM: NEK7 (Homo sapiens (Human), UniProt Q8TDX7+Q96SW2)
Dmax: > 75%
--
MOLECULE: CC(C)(O)c1cnc(C(C)(C)C(=O)NCc2cc(Cl)c(C3CCC(=O)NC3=O)c(Cl)c2)cn1 (stereo not drawn)
ASSAYED_SYSTEM: NEK7 (Homo sapiens (Human), UniProt Q8TDX7+Q96SW2)
Dmax: 50 to 75%
--
MOLECULE: CC(C)(C(=O)NCc1cc(Cl)c(C2CCC(=O)NC2=O)c(Cl)c1)c1cnc(F)nc1 (stereo not drawn)
ASSAYED_SYSTEM: NEK7 (Homo sapiens (Human), UniProt Q8TDX7+Q96SW2)
Dmax: 50 to 75%
--
MOLECULE: Cc1ccc(C(C)(C)C(=O)NCc2cc(F)c(C3CCC(=O)NC3=O)c(Cl)c2)nn1 (stereo not drawn)
ASSAYED_SYSTEM: NEK7 (Homo sapiens (Human), UniProt Q8TDX7+Q96SW2)
Dmax: 50 to 75%

----------
- ASSAYED_SYSTEM: CRBN-DDB1 (Homo sapiens (Human))
- Sequence (Q96SW2 whole entry): as the sequence (Q96SW2 whole entry) above
- Sequence (Q16531 whole entry partner): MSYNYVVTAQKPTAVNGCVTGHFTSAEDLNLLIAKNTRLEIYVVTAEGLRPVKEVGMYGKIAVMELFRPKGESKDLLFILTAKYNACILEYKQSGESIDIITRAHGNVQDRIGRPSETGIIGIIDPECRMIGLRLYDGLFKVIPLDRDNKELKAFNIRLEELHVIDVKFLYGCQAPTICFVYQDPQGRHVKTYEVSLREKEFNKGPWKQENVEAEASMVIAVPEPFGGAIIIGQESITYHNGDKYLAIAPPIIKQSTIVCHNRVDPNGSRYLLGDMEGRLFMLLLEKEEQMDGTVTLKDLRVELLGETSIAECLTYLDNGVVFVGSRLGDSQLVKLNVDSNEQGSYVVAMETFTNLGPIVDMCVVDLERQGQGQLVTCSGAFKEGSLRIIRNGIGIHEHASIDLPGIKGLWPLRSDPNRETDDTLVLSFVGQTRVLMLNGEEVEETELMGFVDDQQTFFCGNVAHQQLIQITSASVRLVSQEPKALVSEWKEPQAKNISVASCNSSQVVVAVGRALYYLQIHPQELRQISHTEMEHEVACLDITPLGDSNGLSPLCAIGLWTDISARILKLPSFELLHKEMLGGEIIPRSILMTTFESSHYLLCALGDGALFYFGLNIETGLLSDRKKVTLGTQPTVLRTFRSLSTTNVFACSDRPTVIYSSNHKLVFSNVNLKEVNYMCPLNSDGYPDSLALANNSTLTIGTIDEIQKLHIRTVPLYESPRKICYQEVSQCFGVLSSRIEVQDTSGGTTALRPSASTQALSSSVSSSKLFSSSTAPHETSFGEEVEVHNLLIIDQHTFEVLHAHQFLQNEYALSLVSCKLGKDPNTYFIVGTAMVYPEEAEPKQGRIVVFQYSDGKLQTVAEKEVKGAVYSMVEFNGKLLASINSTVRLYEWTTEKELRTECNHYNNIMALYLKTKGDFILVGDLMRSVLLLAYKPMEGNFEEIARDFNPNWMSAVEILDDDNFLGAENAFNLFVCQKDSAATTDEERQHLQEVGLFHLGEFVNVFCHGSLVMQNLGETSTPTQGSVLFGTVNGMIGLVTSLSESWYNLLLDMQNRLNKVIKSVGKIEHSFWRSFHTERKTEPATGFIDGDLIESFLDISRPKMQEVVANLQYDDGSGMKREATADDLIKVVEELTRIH
- ASSAY_SUMMARY: Compound binding to CRBN by HTRF assay
- ASSAY_CONDITIONS: HTRF class; Cereblon binding
pEC50: −log10 of the molar value.

COMPOUND: CC(C)(C(=O)NCc1cc(Cl)c(C2CCC(=O)NC2=O)c(Cl)c1)c1ncc(Cl)cn1 (centres unmarked)
ASSAYED_SYSTEM: CRBN-DDB1 (Homo sapiens (Human))
pEC50: 6.00 to 7.00

COMPOUND: CC(C)(C(=O)NCc1cc(Cl)c(C2CCC(=O)NC2=O)c(Cl)c1)c1ncc(C2COC2)cn1 (centres unmarked)
ASSAYED_SYSTEM: CRBN-DDB1 (Homo sapiens (Human))
pEC50: 6.00 to 7.00

COMPOUND: CC(C)(C(=O)NCc1cc(F)c(C2CCC(=O)NC2=O)c(Cl)c1)c1ccc(OC(F)F)nn1 (centres unmarked)
ASSAYED_SYSTEM: CRBN-DDB1 (Homo sapiens (Human))
pEC50: 6.00 to 7.00

COMPOUND: O=C1CCC(c2c(Cl)cc(CNC(=O)C3(c4ccncc4)CCC3)cc2Cl)C(=O)N1 (centres unmarked)
ASSAYED_SYSTEM: CRBN-DDB1 (Homo sapiens (Human))
pEC50: ≥ 7.00

COMPOUND: CC(C)(C(=O)NCc1cc(Cl)c([C@H]2CCC(=O)NC2=O)c(Cl)c1)c1ncccn1 (single isomer, unassigned)
ASSAYED_SYSTEM: CRBN-DDB1 (Homo sapiens (Human))
pEC50: 6.00 to 7.00
